Reference source: ChEMBL document CHEMBL6078723

- System: Staphylococcus aureus
- Test: Bactericidal activity against methicillin-resistant Staphylococcus aureus ATCC 33591 by CLSI based method
- Assay type: functional
Quantity measured: MBC (µg/mL)

>>> numeric_readout("COc1ccc2[nH]c3c(CC[C@H](C)[C@H]4CC[C@H]5[C@@H]6[C@H](O)C[C@@H]7C[C@H](O)CC[C@]7(C)[C@H]6C[C@H](O)[C@]45C)[n+](Cc4ccc(C)cc4)ccc3c2c1.[Br-]")
8
>>> numeric_readout("COc1ccc2[nH]c3c(CC[C@H](C)[C@H]4CC[C@H]5[C@@H]6[C@H](O)C[C@@H]7C[C@H](O)CC[C@]7(C)[C@H]6C[C@H](O)[C@]45C)[n+](Cc4ccc(Cl)cc4)ccc3c2c1.[Br-]")
2
>>> numeric_readout("COc1ccc2[nH]c3c(CC[C@H](C)[C@H]4CC[C@H]5[C@@H]6[C@H](O)C[C@@H]7C[C@H](O)CC[C@]7(C)[C@H]6C[C@H](O)[C@]45C)[n+](Cc4ccccc4C)ccc3c2c1.[Br-]")
8
>>> numeric_readout("COc1ccc2[nH]c3c(CC[C@H](C)[C@H]4CC[C@H]5[C@@H]6[C@H](O)C[C@@H]7C[C@H](O)CC[C@]7(C)[C@H]6C[C@H](O)[C@]45C)[n+](Cc4cccc(F)c4)ccc3c2c1.[Br-]")
2
